biological target: APOL1 (Homo sapiens, UniProt O14791); experiment: MultiTox-Fluor Multiplex Cytotoxicity Assay in tet-inducible APOL1 T-REx-HEK293 cells (cell rescue, ratio of dead to live cells); details: tet-inducible transgenic APOL1 T-REx-HEK293 cell lines, 50 ng/mL tet, 24 hours; read-out: IP50 (i.e., IC50 for cell proliferation)
pIC50: −log10 of the molar value.
# pIC50 values compiled below
propertyMeasured: pIC50

1. CCc1cc2c(s1)CCO[C@@]21CCN(C[C@H]2C[C@@H](NS(=O)(=O)c3cccs3)C2)[C@@H](C)C1 | > 7.00
2. CCc1cc2c(s1)CCO[C@@]21CCN(CCO)[C@@H](C)C1 | 6.30 to 7.00
3. CCc1cc2c(s1)CCO[C@@]21CCN(Cc2cn(CC3CN(C)C(=O)CO3)nn2)[C@@H](C)C1 (stereo partly drawn) | 6.30 to 7.00
4. CCc1cc2c(s1)CCO[C@@]21CCN(CC(O)CO)[C@@H](C)C1 (stereo partly drawn) [Compound 282] | 6.00 to 6.30
5. Cc1cc2c(s1)C1(CCN(Cc3cn(CCS(C)(=O)=O)nn3)[C@@H](C)C1)OCC2 (stereo partly drawn) | 6.30 to 7.00
6. CCc1cc2c(s1)CCO[C@@]21CCN(CC2CN(C(=O)c3nonc3C)C2)[C@@H](C)C1 | > 7.00

---

# pIC50 values compiled below
Biological target: APOL1 (Homo sapiens, UniProt O14791)
Sequence (O14791 1-398 S342G/I384M): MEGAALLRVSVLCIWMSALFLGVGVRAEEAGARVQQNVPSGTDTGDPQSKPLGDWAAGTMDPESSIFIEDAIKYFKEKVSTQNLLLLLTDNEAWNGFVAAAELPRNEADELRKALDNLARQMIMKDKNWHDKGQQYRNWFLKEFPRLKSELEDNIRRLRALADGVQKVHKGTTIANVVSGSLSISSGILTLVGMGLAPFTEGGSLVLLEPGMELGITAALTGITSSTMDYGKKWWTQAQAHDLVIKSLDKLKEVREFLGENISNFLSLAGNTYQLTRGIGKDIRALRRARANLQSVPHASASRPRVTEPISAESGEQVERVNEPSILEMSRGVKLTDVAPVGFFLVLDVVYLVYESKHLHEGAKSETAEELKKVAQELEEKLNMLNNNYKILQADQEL
Assay: MultiTox-Fluor Multiplex Cytotoxicity Assay in tet-inducible APOL1 T-REx-HEK293 cells (cell rescue, ratio of dead to live cells)
Conditions: tet-inducible transgenic APOL1 T-REx-HEK293 cell lines, 50 ng/mL tet, 24 hours; read-out: IP50 (i.e., IC50 for cell proliferation)
pIC50: −log10 of the molar value.
propertyMeasured: pIC50

1. C[C@H]1C[C@@]2(CCN1Cc1cn(CCS(C)(=O)=O)nn1)OCCc1sc(C(F)(F)F)cc12 | > 7.00
2. CCc1cc2c(s1)CCOC21CCN(Cc2cn(CCS(=O)(=O)CC)nn2)CC1 | 6.00 to 6.30
3. CCc1cc2c(s1)CCO[C@@]21CCN(Cc2cn([C@H]3CCN(C(=O)OC(C)(C)C)C3)nn2)[C@@H](C)C1 | > 7.00
4. CCc1cc2c(s1)CCOC21CCN(Cc2cn(CCS(=O)(=O)CC3CC3)nn2)CC1 | 6.00 to 6.30
5. CCc1cc2c(s1)C(C)COC21CCN(Cc2cnn(C)c2)CC1 (single isomer, unassigned) [Compound 1170] | 6.30 to 7.00
6. CCc1cc2c(s1)CCO[C@@]21CCN(Cc2cn(CCS(=O)(=O)c3ccccc3)nn2)[C@@H](C)C1 | > 7.00
7. C[C@H]1C[C@@]2(CCN1Cc1cnn(CC(N)=O)c1)OCCc1cc(Cl)sc12 | 6.30 to 7.00
